# reported Efflux ratio; entries follow
- System: P. aeruginosa MB9798 (efflux+, IMP-1 plasmid)
- Study conditions: fold difference between efflux+ (MB9798) and efflux− (MB9799) strains
Respond using a number only.

NS(=O)(=O)c1c(S(=O)(=O)C2CNC2)ccc(N2CC3C(CO)C3C2)c1-c1nnn[nH]1 (stereo not shown); 31.99
NC(=O)[C@@H]1CN(c2ccc(S(=O)(=O)N[C@@H]3CCNC3)c(S(N)(=O)=O)c2-c2nn[nH]n2)CCN1; 3.00
NS(=O)(=O)c1c(S(=O)(=O)N[C@@H]2CCNC2)ccc(N2CCC(Oc3ccccn3)CC2)c1-c1nnn[nH]1; 31.99
NC1CCN(c2ccc(S(=O)(=O)N[C@@H]3CCNC3)c(S(N)(=O)=O)c2-c2nn[nH]n2)C(=O)C1 (stereo partly shown); 2.00
N[C@@H]1CCCN(c2ccc(S(=O)(=O)N[C@@H]3CCNC3)c(S(N)(=O)=O)c2-c2nn[nH]n2)C1=O; 2.00

Incoming: Efflux ratio for NC[C@@H](O)CNS(=O)(=O)c1ccc(N2CCN3CCOCC3C2)c(-c2nn[nH]n2)c1S(N)(=O)=O (stereo partly shown) [Example 129, 2,2,2-trifluoroacetate] ?
Outgoing: 2.00

Incoming: Efflux ratio for "NC[C@@H](O)CNS(=O)(=O)c1ccc(N2CCC(c3ncc[nH]3)CC2)c(-c2nn[nH]n2)c1S(N)(=O)=O" ?
Outgoing: 2.00

###

- Tested on: P. aeruginosa MB9798 (efflux+, IMP-1 plasmid)
- Study conditions: fold difference between efflux+ (MB9798) and efflux− (MB9799) strains
- Text: The strain background is Pseudomonas aeruginosa PAO1. A wild-type (M135919) and an isogenic strain in which multiple efflux pumps have been disrupted genetically were used. The MBL IMP-1, obtained from a clinical isolate was introduced into the strain pair by the following process: The plasmid DNA was transformed into parental MB5919 (oprD+, efflux+, inducible AmpC) and MB5890 (oprD+, efflux−, inducible AmpC) isogenic strains by electroporation. […]
# reported Efflux ratio; entries follow

Incoming: Efflux ratio for "N[C@@H]1CCCN(c2ccc(S(=O)(=O)N[C@@H]3CCNC3)c(S(N)(=O)=O)c2-c2nnn[nH]2)C1" ?
Outgoing: 8.00

###

# reported Efflux ratio; entries follow
- Tested on: P. aeruginosa MB9798 (efflux+, IMP-1 plasmid)
- Study conditions: fold difference between efflux+ (MB9798) and efflux− (MB9799) strains
Respond using a number only.

Examples with answers:
NCCNS(=O)(=O)c1ccc(N2CCC(CN)CC2)c(-c2nnn[nH]2)c1S(N)(=O)=O; 1.00
NS(=O)(=O)c1c(S(=O)(=O)C2CNC2)ccc(N2CCC(CCO)CC2)c1-c1nnn[nH]1; 4.00
NCC=C1CCN(c2ccc(S(=O)(=O)NC[C@H](O)CN)c(S(N)(=O)=O)c2-c2nn[nH]n2)CC1; 1.00
NS(=O)(=O)c1c(S(=O)(=O)N[C@@H]2CCNC2)ccc(NCC2CCNCC2)c1-c1nn[nH]n1; 2.67
NS(=O)(=O)c1c(S(=O)(=O)N[C@@H]2CCNC2)ccc(N2CCNC(CO)CC2)c1-c1nn[nH]n1 (stereo partly shown); 4.00

Incoming: Efflux ratio for "NS(=O)(=O)c1c(S(=O)(=O)N[C@@H]2CCNC2)ccc(N2CCC(CF)CC2)c1-c1nnn[nH]1" ?
Outgoing: 2.00

Incoming: Efflux ratio for CC1CN(c2ccc(S(=O)(=O)NC[C@H](O)CN)c(S(N)(=O)=O)c2-c2nn[nH]n2)CCN1CCO.O=C(O)C(F)(F)F.O=C(O)C(F)(F)F (stereo partly shown) ?
Outgoing: 2.00

Value source: patent US11207312B2
